# assay: viability profiling in RPMI8226 myeloma cells – cell-based, resazurin fluorescence, basal, 24 h, PK04 Diversity Set, profiling panel (AID 1180);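 further: RPMI8826 multiple myeloma cell line at 5000 cells per well; test concentration not given here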
# experimental.parameters: higher = more signal
Quick reference: z-score of the listed items.
Form: value (number only, do not type unit).

Worked examples follow.
compound	property.label	observed.value
CO[C@H]1O[C@H](CO)[C@@H](OC(=O)Nc2ccccc2-c2ccccc2)[C@H](OC(=O)Nc2ccccc2-c2ccccc2)[C@H]1OC(=O)Nc1ccccc1-c1ccccc1	z-score	-1.6
Cc1ccc(S(=O)(=O)N2CC(C(=O)O)=CCC2c2ccccc2)cc1 (centres undefined)	z-score	-0.931
COC(=O)[C@@]1(Cc2ccccc2)[C@H]2c3cc(C(=O)N(C)C)n(Cc4cc(F)c(F)c(F)c4)c3C[C@H]2CN1C(=O)c1ccccc1	z-score	-0.963
O=C1C2C=CC(C(O)c3cccc4ccccc34)N(n3cnnc3)C2C(=O)N1Cc1ccccc1 (centres undefined)	z-score	-1.07
COC(=O)[C@@]1(Cc2ccc(F)cc2)[C@H]2c3cc(C(=O)N(C)C)n(CCCNc4ccc(C(F)(F)F)cc4Cl)c3C[C@H]2CN1C(=O)c1ccccc1	z-score	-3.88

(Q) Need z-score of `C=C(CCCC)/C(=C/C[C@@H](OC(=O)c1ccncc1)c1ccc(CO)o1)c1cc(C(=O)OC)ccc1OC` , thanks.
(A) -0.466

(Q) Need z-score of `CC(C)C[C@@H]1NC(=O)[C@@H]2C[C@H](C(=O)NCCCCN(C)C)[C@H](c3ccc(O)cc3)N2C1=O` , thanks.
(A) 0.0109

Provenance of the data: PubChem BioAssay
